STUDY TARGET: DRB1*0401 (DR4w4) (Homo sapiens, UniProt P01903+P01911, A100K/A169T/F76Y/I96L/K127E/L162R/M171V/N62H/P40V/Q125Y/R42H/S133A/S149N/S66Y/V115G/V209L/W38E)
Construct: used as sources of human HLA class II molecules; endogenous in cells; host or cells: PREISS (EBV-transformed homozygous B cell line)
PROTOCOL SUMMARY: Class II peptide-binding assay, DR4w4;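 also: unlabeled test peptides compete with a radiolabeled probe peptide for binding to affinity-purified HLA-DR, with DR amount titrated to capture a small fraction of label, IC50 approximating Kd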
MEASUREMENT PARAMETERS: Table V B) Correct Predictions; read-out: Binding Capacity (IC50% nM) DR4w4
Ends that are not written are not given here.
RESULT TYPE: IC50 (nM)
Answer format: numeric, nM implied, no suffix.

response.value for LAAIIFLFGPPTALRS [Peptide 1136.28] (field: IC50) = 849

response.value for LWWSTMYLTHHYFVDL [Peptide 1136.46] (field: IC50) = 985
